- measurementDescription: Bioavailability after oral administration in dog
- Assay type: ADME, organism-based, Canis lupus familiaris
- runConditions: in vivo
measuredEndpoint: bioavailability (%)
One number for each entry, in %.

Which measured bioavailability value corresponds to C[C@]12CCC(=O)C=C1NCC1C2CC[C@@]2(C)C1CC[C@@H]2C(=O)NC(c1ccccc1)c1ccccc1 (stereo partly specified) ?
80

----------
- targetUnderTest: UniProt P18405
- measurementDescription: Inhibition of recombinant human 5-alpha reductase-1 […] after pre-incubation for 10 minutes
measuredEndpoint: IC50 (nM)
One number for each entry, in nM.

Which measured IC50 value corresponds to CC(C)(C)NC(=O)[C@H]1CC[C@H]2[C@@H]3CC[C@H]4NC(=O)C=C[C@]4(C)[C@H]3CC[C@]12C [FINASTERIDE] ?
150

----------
Assign IC50 to each entry below.
- targetUnderTest: 3-oxo-5-alpha-steroid 4-dehydrogenase 2 (Homo sapiens, UniProt P31213)
- Sequence (P31213 whole entry): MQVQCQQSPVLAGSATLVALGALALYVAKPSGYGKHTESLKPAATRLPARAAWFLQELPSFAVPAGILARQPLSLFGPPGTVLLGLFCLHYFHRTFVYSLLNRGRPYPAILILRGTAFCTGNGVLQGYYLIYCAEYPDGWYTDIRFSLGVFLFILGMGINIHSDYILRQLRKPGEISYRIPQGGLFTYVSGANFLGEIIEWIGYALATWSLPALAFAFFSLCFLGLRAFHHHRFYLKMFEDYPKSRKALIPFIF
- measurementDescription: Inhibition of recombinant human 5-alpha reductase-2 […] after pre-incubation for 10 minutes
Answers are plain numbers, in nM.

molecule: C[C@]12CCC(=O)C=C1NCC1C2CC[C@@]2(C)C1CC[C@@H]2C(=O)NC(c1ccccc1)(c1ccccc1)c1ccccc1 (stereo partly specified)
IC50 (nM): 0.09

For every item below, please supply its IC50.
1. C[C@]12CCC(=O)C=C1NCC1C2CC[C@@]2(C)C1CC[C@@H]2C(=O)NC(C1CCCCC1)C1CCCCC1 (stereo partly specified)
2. C[C@]12CCC(=O)C=C1NCC1C2CC[C@@]2(C)C1CC[C@@H]2C(=O)NC(c1ccc(Cl)cc1)c1ccc(Cl)cc1 (stereo partly specified)
3. C[C@]12CCC(=O)C=C1NCC1C2CC[C@@]2(C)C1CC[C@@H]2C(=O)NC(c1ccccc1)c1ccccc1 (stereo partly specified)
4. C[C@]12CCC(=O)C=C1NCC1C2CC[C@@]2(C)C1CC[C@@H]2C(=O)NN(c1ccccc1)c1ccccc1 (stereo partly specified)
5. C[C@]12CCC(=O)C=C1NCC1C2CC[C@@]2(C)C1CC[C@@H]2C(=O)C1[C@H]2C[C@@H]3C[C@@H](C[C@H]1C3)C2 (stereo partly specified)

1. 0.4
2. 0.12
3. 0.09
4. 0.23
5. 0.04

----------
- targetUnderTest: 3-oxo-5-alpha-steroid 4-dehydrogenase 1 (Homo sapiens)
- Sequence (P18405 whole entry): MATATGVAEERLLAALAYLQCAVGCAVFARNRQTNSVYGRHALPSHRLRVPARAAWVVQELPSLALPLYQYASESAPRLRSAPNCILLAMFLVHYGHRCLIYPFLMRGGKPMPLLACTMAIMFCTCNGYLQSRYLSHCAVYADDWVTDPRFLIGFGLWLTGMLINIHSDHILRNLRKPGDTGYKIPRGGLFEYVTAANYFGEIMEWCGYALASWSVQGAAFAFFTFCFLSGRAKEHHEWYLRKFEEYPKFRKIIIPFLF
- measurementDescription: Inhibition of recombinant human 5-alpha reductase-1 […] after pre-incubation for 10 minutes
Assign Ki to each entry below.
Give bare numbers, in nM.

For every item below, please supply its Ki.
1. C[C@]12CCC(=O)C=C1NCC1C2CC[C@@]2(C)C1CC[C@@H]2C(=O)C1[C@H]2C[C@@H]3C[C@@H](C[C@H]1C3)C2 (stereo partly specified)
2. C[C@]12CCC(=O)C=C1NCC1C2CC[C@@]2(C)C1CC[C@@H]2C(=O)NCc1ccccc1 (stereo partly specified)
3. C[C@]12CCC(=O)C=C1NCC1C2CC[C@@]2(C)C1CC[C@@H]2C(=O)NC(c1ccc(F)cc1)c1ccc(F)cc1 (stereo partly specified)
4. CC(C)NC(=O)[C@H]1CCC2C3CNC4=CC(=O)CC[C@]4(C)C3CC[C@@]21C (stereo partly specified)
5. C[C@]12CCC(=O)C=C1NCC1C2CC[C@@]2(C)C1CC[C@@H]2C(=O)NC12C[C@H]3C[C@@H](C1)C[C@@H](C2)C3 (stereo partly specified)
6. CC(C)CC(=O)[C@H]1CCC2C3CNC4=CC(=O)CC[C@]4(C)C3CC[C@@]21C (stereo partly specified)

6.9
360
20
6000
11
9
